These data points were gathered from the supplement of paper PMC10567573.

B1: NETO1 (parent)
chain: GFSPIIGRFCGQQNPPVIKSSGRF

Variants of: B1
Test: protein stability index of a GFP-peptide fusion (GPS, HEK-293T) (PSI 1-6); higher = more stable;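 also: lentivirally expressed fusions sorted by FACS into six bins by GFP to DsRed ratio, PSI derived from sequencing read proportions per bin multiplied by bin number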
Conditions: c terminus: a fixed tail appended
quantity: protein stability index
// response body must contain only the number

Example results:
Tell us which protein stability index value is on record for I18A
2.7

Tell us which protein stability index value is on record for G11Q
2.38

Tell us which protein stability index value is on record for I5P
2.79

Tell us which protein stability index value is on record for P15E
2.27

Tell us which protein stability index value is on record for G7W
1.42

Tell us which protein stability index value is on record for S3Q
2.49

Next:
Tell us which protein stability index value is on record for G11M
1.51

Tell us which protein stability index value is on record for P15L
2.59

Tell us which protein stability index value is on record for R23E
2.04
